These data points were gathered from patent US12351581B2.

# tested.target: FGFR2 V564F (Homo sapiens, UniProt P21802, V564F)
# Construct: biochemical assays using purified intracellular domains of the respective isoforms
# Sequence (P21802 399-821 V564F limits assumed): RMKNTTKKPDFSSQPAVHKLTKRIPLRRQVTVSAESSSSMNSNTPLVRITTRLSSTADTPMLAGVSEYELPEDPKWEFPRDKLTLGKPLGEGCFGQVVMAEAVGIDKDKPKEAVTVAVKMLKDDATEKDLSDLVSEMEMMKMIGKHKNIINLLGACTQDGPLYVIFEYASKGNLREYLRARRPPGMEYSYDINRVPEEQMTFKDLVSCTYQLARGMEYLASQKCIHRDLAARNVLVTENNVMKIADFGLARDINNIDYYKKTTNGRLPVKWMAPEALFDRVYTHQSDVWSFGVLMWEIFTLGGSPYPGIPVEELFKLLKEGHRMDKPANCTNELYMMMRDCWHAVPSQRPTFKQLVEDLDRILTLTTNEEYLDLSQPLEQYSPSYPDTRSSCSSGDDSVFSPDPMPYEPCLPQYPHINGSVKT
# measurement.protocol: FGFR mutant enzyme assay (HTRF KinEASE-TK)
# experimental.context: ATP 1.5 uM
pIC50: −log10 of the molar value.
result.type: pIC50

>  <molecule>
CC[C@@H](Oc1cc(-c2cnn([C@H]3CC[C@H](O)CC3)c2C)cn2ncc(C#N)c12)c1ccc(F)cn1 [Compound 60]

>  <tested.target>
FGFR2 V564F (Homo sapiens, UniProt P21802, V564F)

>  <pIC50>
8.82

$$$$

[a] Cc1c(-c2cc(O[C@H](C)c3ccc(F)cn3)c3c(C#N)cnn3c2)cnn1[C@H]1CC[C@H](OC(=O)[C@@H](N)C(C)C)CC1 [Compound 53]
[b] C[C@@H](Oc1cc(-c2cnn([C@H]3CC[C@H](O)CC3)c2)cn2ncc(C#N)c12)c1ccc(F)cn1 [Compound 55]
[c] Cc1c(-c2cc(O[C@H](C)c3ccc(F)cn3)c3c(C#N)cnn3c2)cnn1C [Compound 21]
Query block: Returns the items ordered by pIC50, from maximum to minimum. Write the labels, ordered according to the request.
Result block: b, a, c
